system_tested: Dickkopf-related protein 1 (Homo sapiens)
test_summary: DKK1 binders on small-molecule microarrays, primary screen, biochemical, small-molecule microarray, 635 nm fluorescence scan (AID 1106);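 note: score merges emission near 667 nm with signal to noise over three replicate slides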
condition_notes: DKK1 binding, higher = more signal
Provide the recorded composite z-score for the entries that follow.
Answers are plain numbers.

Solved cases (3 shown):
smiles_text	system_tested	composite z-score
CCC(=O)[C@@]1(O)C(=O)N2C(=C3C(=O)OCC[C@@H]31)N(Cc1ccccc1)C(C)=C(C(=O)OC)[C@H]2c1ccccc1	Dickkopf-related protein 1 (Homo sapiens)	0.873
C=CC[C@@H]1C=C[C@H](ON=C2[C@H]3CCn4c(=O)n(-c5ccccc5)c(=O)n4[C@H]3[C@H](O)[C@@H]3O[C@H]23)[C@@H](CO)O1	Dickkopf-related protein 1 (Homo sapiens)	0.536
CO[C@@H]1C=CCC(=O)N2CCC[C@H]2C(=O)OC[C@@H](C)C(=O)OC[C@H]1C	Dickkopf-related protein 1 (Homo sapiens)	1.43

Please state, for each entry, its recorded composite z-score.
1. CC=CC1=C(CO)C(=O)[C@@H]2O[C@@H]2C1=O
2. C#CCCCON=C1C[C@@H](O)[C@@H](O)[C@@H]2[C@@H]3C(=O)N(CC)C(=O)[C@@H]3CC[C@@H]12
3. Cc1ccc(S(=O)(=O)N[C@@H]2COC(=O)[C@@H](C)COC(=O)CC=C[C@H]2C)cc1
4. CO[C@H]1COC(=O)CC=C[C@@H](C)[C@H](OC)COC(=O)[C@@H]2CCCN2C(=O)CC=C[C@@H]1C
5. CC(C)=CCCC(C)=CCON=C1C[C@@H](O)[C@@H](O)[C@@H]2[C@@H]3C(=O)N(Cc4ccccc4)C(=O)[C@@H]3CC[C@H]12

Data returned:
1.57
0.628
0.56
1.16
-0.523
